Where do these numbers come from? They come from ChEMBL document CHEMBL1268993.

target: Mitogen-activated protein kinase 14 (Homo sapiens); experiment: Inhibition of p38alpha by immunosorbent based assay
Sequence (Q16539 whole entry): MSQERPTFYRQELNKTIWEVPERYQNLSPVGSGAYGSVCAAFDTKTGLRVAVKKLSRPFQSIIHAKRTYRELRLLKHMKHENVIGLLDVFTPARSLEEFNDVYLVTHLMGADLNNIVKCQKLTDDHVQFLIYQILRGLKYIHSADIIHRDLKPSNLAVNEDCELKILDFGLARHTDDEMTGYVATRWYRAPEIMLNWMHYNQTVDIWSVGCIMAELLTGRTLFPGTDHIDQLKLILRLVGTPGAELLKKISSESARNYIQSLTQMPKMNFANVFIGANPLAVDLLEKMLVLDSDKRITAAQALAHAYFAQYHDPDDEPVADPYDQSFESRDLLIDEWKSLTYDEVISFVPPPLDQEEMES
Classes (IC50): low: < 60 nM; medium: ≥ 60 nM and < 200 nM; high: ≥ 200 nM

CSc1nc(-c2ccc(F)cc2)c(-c2ccnc(NC(C)=O)c2)n1CC(=O)N1CCOCC1	high

Prompt line: Tag the class for `CCOC(=O)CCn1c(SC)nc(-c2ccc(F)cc2)c1-c1ccnc(NC(C)=O)c1`
Response line: high

Prompt line: Param item: `CSc1nc(-c2ccc(F)cc2)c(-c2ccnc(NC(=O)COc3ccc(Cl)cc3)c2)[nH]1`
Response line: medium

Prompt line: Can you check `CSc1nc(-c2ccc(F)cc2)c(-c2ccnc(NC(C)=O)c2)n1CCC(=O)N1CCCC1` next?
Response line: high
